# System: Bacillus subtilis
# Experiment description: Antibacterial activity against Bacillus subtilis NRRL B-14819 after 24 to 48 hrs by twofold serial dilution method
# Type: functional
Parameter measured: MIC (µg/mL)

Here are 5 molecules together with their reported answers.
Sc1nnc(COC(Cn2nnnc2Cc2ccccc2)c2ccc(Cl)cc2)n1-c1ccc(Cl)cc1 (configuration not stated)	50
Sc1nnc(COC(Cn2nnc(-c3ccccc3)n2)c2ccc(Cl)cc2)n1-c1ccccc1 (configuration not stated)	50
O=C(O)COC(Cn1nnc(-c2ccccc2)n1)c1ccc(Cl)cc1 (configuration not stated)	100
Sc1nnc(COC(Cn2nnc(-c3ccccc3)n2)c2ccc(Cl)cc2)o1 (configuration not stated)	25
Sc1nnc(COC(Cn2nnnc2Cc2ccccc2)c2ccc(Cl)cc2)o1 (configuration not stated)	100

A. Cc1cc(C)n(C(=O)COC(Cn2nnnc2Cc2ccccc2)c2ccc(Cl)cc2)n1 (configuration not stated)
B. Cc1cc(C)n(C(=O)COC(Cn2nnc(-c3ccccc3)n2)c2ccc(Cl)cc2)n1 (configuration not stated)
Q: Hello, I am sorting some records. Could you say if A or B has the smaller MIC value? To answer, give the label that identifies your chosen option.
Result: B
(B: 25 µg/mL, A: 50 µg/mL)

====

# Test system: Mus musculus
# Experiment description: Anticonvulsant activity in Wister albino mouse assessed as protection against subcutaneous metrazole-induced seizures at 100 mg/kg, ip administered 30 mins before metrazole challenge measured after 30 mins
# Format: functional
# Condition description: route intraperitoneal
Parameter measured: Activity (%)
Write the number in % without appending the unit.

Here are 5 compounds together with their reported answers.
Clc1ccc(C2Cn3nnnc3Cc3ccccc32)cc1 (stereo unspecified)	0
Sc1nnc(COC(Cn2nnnc2Cc2ccccc2)c2ccc(Cl)cc2)n1-c1ccccc1 (stereo unspecified)	0
O=C(Cn1nnc(-c2ccccc2)n1)c1ccc(Cl)cc1	0
Sc1nnc(COC(Cn2nnc(-c3ccccc3)n2)c2ccc(Cl)cc2)o1 (stereo unspecified)	33
O=C(Cn1nnnc1Cc1ccccc1)c1ccc(Cl)cc1	50

# next compound below
Q: Record OC(Cn1nnnc1Cc1ccccc1)c1ccc(Cl)cc1 (stereo unspecified) : what is its Activity with Mus musculus?
Result: 100

====

# System: Escherichia coli
# Experiment description: Antibacterial activity against Escherichia coli ATCC 25922 after 24 to 48 hrs by twofold serial dilution method
# Assay type: functional
Reported values of MIC for individual entries

CCOC(=O)COC(Cn1nnc(-c2ccccc2)n1)c1ccc(Cl)cc1 (stereo unspecified)	≥ 200 µg/mL

Q: Look up MIC for this compound: `Clc1ccc(/C=C/n2nnc(-c3ccccc3)n2)cc1`
Result: 100 µg/mL

Q: Look up MIC for this compound: NNC(=O)COC(Cn1nnc(-c2ccccc2)n1)c1ccc(Cl)cc1 (stereo unspecified)
Result: ≥ 200 µg/mL

Q: Look up MIC for this compound: O=C(COC(Cn1nnnc1Cc1ccccc1)c1ccc(Cl)cc1)N/N=C/c1ccc(Cl)cc1 (stereo unspecified)
Result: 100 µg/mL

Q: Look up MIC for this compound: O=C(COC(Cn1nnc(-c2ccccc2)n1)c1ccc(Cl)cc1)NNC(=S)Nc1ccccc1 (stereo unspecified)
Result: ≥ 200 µg/mL

Q: Look up MIC for this compound: Sc1nnc(COC(Cn2nnnc2Cc2ccccc2)c2ccc(Cl)cc2)o1 (stereo unspecified)
Result: ≥ 200 µg/mL

====

# Tested on: Klebsiella pneumoniae
# Experiment description: Antibacterial activity against Klebsiella pneumoniae isolate after 24 to 48 hrs by twofold serial dilution method
# Format: functional
Reported values of MIC for individual entries

CCOC(=O)COC(Cn1nnc(-c2ccccc2)n1)c1ccc(Cl)cc1 (stereo not given)	≥ 200 µg/mL

Q: Look up MIC for this compound: O=C(COC(Cn1nnnc1Cc1ccccc1)c1ccc(Cl)cc1)NNC(=S)Nc1ccc(Cl)cc1 (stereo not given)
Result: ≥ 200 µg/mL

====

Reported values of MIC for individual entries
# Tested on: Escherichia coli
# Experiment description: Antibacterial activity against Escherichia coli ATCC 25922 after 24 to 48 hrs by twofold serial dilution method
# Type: functional

Here are 2 molecules together with their reported answers.
O=C(COC(Cn1nnnc1Cc1ccccc1)c1ccc(Cl)cc1)NNC(=S)Nc1ccc(Cl)cc1 (stereo not drawn)	≥ 200 µg/mL
Sc1nnc(COC(Cn2nnc(-c3ccccc3)n2)c2ccc(Cl)cc2)n1-c1ccc(Cl)cc1 (stereo not drawn)	100 µg/mL

Q: Record O=C(O)COC(Cn1nnc(-c2ccccc2)n1)c1ccc(Cl)cc1 (stereo not drawn) : what is its MIC with Escherichia coli?
Result: ≥ 200 µg/mL

====

# Tested on: Klebsiella pneumoniae
# Experiment description: Antibacterial activity against Klebsiella pneumoniae isolate after 24 to 48 hrs by twofold serial dilution method
# Assay type: functional
Reported values of MIC for individual entries
Write the number in µg/mL without appending the unit.

CC1(C)S[C@@H]2[C@H](NC(=O)[C@H](N)c3ccccc3)C(=O)N2[C@H]1C(=O)O.O.O.O [AMPICILLIN TRIHYDRATE]	12.5

# next compound below
Q: Look up MIC for this compound: Sc1nnc(COC(Cn2nnc(-c3ccccc3)n2)c2ccc(Cl)cc2)n1-c1ccc(Cl)cc1 (stereo not given)
Result: 100

====

Reported values of MIC for individual entries
# Tested on: Klebsiella pneumoniae
# Experiment description: Antibacterial activity against Klebsiella pneumoniae isolate after 24 to 48 hrs by twofold serial dilution method
# Format: functional

Q: Look up MIC for this compound: Cc1cc(C)n(C(=O)COC(Cn2nnc(-c3ccccc3)n2)c2ccc(Cl)cc2)n1 (stereo not drawn)
Result: 100 mg/L

Q: Look up MIC for this compound: O=C(COC(Cn1nnnc1Cc1ccccc1)c1ccc(Cl)cc1)NNC(=S)Nc1ccccc1 (stereo not drawn)
Result: ≥ 200 mg/L

Q: Look up MIC for this compound: O=C(O)COC(Cn1nnc(-c2ccccc2)n1)c1ccc(Cl)cc1 (stereo not drawn)
Result: ≥ 200 mg/L

====

# Test system: Klebsiella pneumoniae
# Experiment description: Antibacterial activity against Klebsiella pneumoniae isolate after 24 to 48 hrs by twofold serial dilution method
# Assay type: functional
Parameter measured: MIC

O=C(COC(Cn1nnc(-c2ccccc2)n1)c1ccc(Cl)cc1)N/N=C/c1ccc(Cl)cc1 (stereo not drawn)	≥ 200 µg/mL

Q: Record Sc1nnc(COC(Cn2nnnc2Cc2ccccc2)c2ccc(Cl)cc2)n1-c1ccc(Cl)cc1 (stereo not drawn) : what is its MIC with Klebsiella pneumoniae?
Result: ≥ 200 µg/mL

Q: Record O=C(COC(Cn1nnc(-c2ccccc2)n1)c1ccc(Cl)cc1)NNC(=S)Nc1ccccc1 (stereo not drawn) : what is its MIC with Klebsiella pneumoniae?
Result: ≥ 200 µg/mL
